Below are pKd values measured for galectin-9 (C-terminal domain) (Homo sapiens, UniProt O00182).
Remember the convention: pKd equals -log10 of concentration in molar.

>  <Compound>
O=c1oc2cc(F)c(F)cc2cc1COC1C(O)[C@H](S[C@@H]2OC(CO)[C@H](O)C(OCc3cc4cc(F)c(F)cc4oc3=O)C2O)OC(CO)[C@@H]1O (some centres unmarked) [Compound 29]

>  <pKd>
5.64

$$$$
>  <Compound>
CC(C)(C)c1ccc2oc(=O)c(COC3C(O)[C@H](S[C@@H]4OC(CO)[C@H](O)C(OCc5cc6cc(C(C)(C)C)ccc6oc5=O)C4O)OC(CO)[C@@H]3O)cc2c1 (some centres unmarked) [Compound 26]

>  <pKd>
4.77

$$$$

Qu. Request the reported pKd associated with CO[C@@H]1OC(CO)[C@H](O)C(O)C1O (stereo partly drawn) [methyl β-D-galactoside, reference compound]
Ans. 2.30
